- assay.overview: HepG2 cell viability effects, profiling panel, calcein-AM fluorescence, 48 h, basal (AID 1164); further: test concentration not given here
- run.conditions: higher = more signal
measured.property: z-score

Entry CC(C)[C@H]1NC(=O)[C@@]23C(=O)N[C@@H](Cc4ccccc4)C2[C@H](C)[C@@]2(C)O[C@H]2C3/C=C/CCC/C=C/CNC(=O)[C@H](Cc2ccccc2)NC1=O (stereo not given in full) : reported z-score = ?
0.304

Entry COc1ccc([Si](C)(C)[C@H]2[C@H](CC(=O)N3Cc4ccccc4C[C@H]3CO)O[C@@]3(C(=O)N(Cc4ccc(N5C(=O)c6cccc7cccc5c67)cc4)c4ccccc43)[C@@H]2C)cc1 : reported z-score = ?
0.898

Entry COCCOC(=O)N1C(=O)[C@@]2(c3cc(C#CCC(C(=O)OC)C(=O)OC)ccc31)[C@H](C(=O)NC[C@H](O)c1ccccc1)[C@H]1C(=O)O[C@H](c3ccccc3)[C@H](c3ccccc3)N1[C@@H]2c1ccc(O)cc1 : reported z-score = ?
1.26

Entry COc1ccc([Si](C)(C)[C@H]2[C@H](CCO)O[C@@]3(C(=O)N(Cc4ccc(N5C(=O)c6ccccc6Oc6ccccc65)cc4)c4ccccc43)[C@@H]2C)cc1 : reported z-score = ?
-2.71

Entry NC(=O)[C@H]1[C@@H]2C(=O)O[C@@H](c3ccccc3)[C@@H](c3ccccc3)N2[C@@H](c2ccc(O)cc2)[C@]12C(=O)Nc1ccc(C#CC3=CCCCC3)cc12 : reported z-score = ?
-3.91

----------
composite z-score for assorted compounds
- study.target: Follistatin (Homo sapiens) (UniProt P19883)
- Sequence (P19883 whole entry, looked up): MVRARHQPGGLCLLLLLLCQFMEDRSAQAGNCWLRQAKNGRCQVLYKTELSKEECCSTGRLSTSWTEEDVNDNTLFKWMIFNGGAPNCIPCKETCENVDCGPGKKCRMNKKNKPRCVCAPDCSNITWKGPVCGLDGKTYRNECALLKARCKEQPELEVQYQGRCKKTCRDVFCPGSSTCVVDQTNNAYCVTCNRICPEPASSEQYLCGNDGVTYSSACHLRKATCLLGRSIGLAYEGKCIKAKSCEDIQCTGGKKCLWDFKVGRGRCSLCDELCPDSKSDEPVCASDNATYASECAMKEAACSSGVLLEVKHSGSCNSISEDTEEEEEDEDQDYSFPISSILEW
- assay.overview: follistatin binders on small-molecule microarrays, primary screen, biochemical, small-molecule microarray, 635/667 nm fluorescence (AID 1132)
- run.conditions: FST binding, 635 nm fluorescence, higher = more signal
// keep it numeric: no unit symbol after the value

{"compound": "C=C(C)[C@@H]1CC=C(C(O)C2C=CC3C(=O)N(c4ccccc4)C(=O)C3N2Nc2ccc(C#N)cc2)CC1 (some centres not stated)", "reported.result": 1.25}

Entry O=C1O[C@H](c2ccccc2)[C@H](c2ccccc2)N2[C@H]1[C@@H](C(=O)N1CCCCCCC1)[C@]1(C(=O)Nc3ccc(C#CC4(O)CCCCCC4)cc31)[C@H]2c1ccc(O)cc1 : reported composite z-score = ?
1.4

Entry CC(C)N1CC=CC23O[C@@H]4/C=C\CCCOC(=O)C4[C@H]2C(=O)N(CCCCCCO)[C@@H]3C1=O (some centres not stated) : reported composite z-score = ?
-1.04

Entry COCCOC(=O)N1C(=O)[C@@]2(c3cc(C#CCNC(N)=O)ccc31)[C@H](c1ccc(OCCO)cc1)N1[C@H](c3ccccc3)[C@H](c3ccccc3)OC(=O)[C@H]1[C@@H]2C(=O)NC[C@H](O)c1ccccc1 : reported composite z-score = ?
1.37

Entry CCCCC=C[C@@H](NC(=O)c1ccccc1)c1ccccc1 : reported composite z-score = ?
0.527

Entry COC(=O)[C@@]1(Cc2ccccc2)[C@H]2c3cc(C(=O)N(C)C)n(CCn4cc([N+](=O)[O-])nc4C)c3C[C@H]2CN1C(=O)c1ccccc1 : reported composite z-score = ?
0.387

Entry COc1ccc([Si](C)(C)[C@@H]2[C@@H](CCn3cc([C@H](O)c4ccccc4)nn3)O[C@]3(C(=O)N(Cc4cccc(N5C(=O)c6cccc7cccc5c67)c4)c4ccccc43)[C@H]2C)cc1 : reported composite z-score = ?
-0.0585
